B1: VH:VL chains; a variant is named by its letters at X, in order (parent)
chain 1: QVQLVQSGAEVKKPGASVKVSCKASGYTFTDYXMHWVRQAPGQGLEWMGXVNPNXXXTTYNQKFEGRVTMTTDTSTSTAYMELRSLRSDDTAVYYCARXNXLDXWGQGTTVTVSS
chain 2: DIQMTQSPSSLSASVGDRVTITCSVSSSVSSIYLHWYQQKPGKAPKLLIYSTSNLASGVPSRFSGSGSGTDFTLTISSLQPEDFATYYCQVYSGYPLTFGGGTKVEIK

- Variants of: B1
- test-protocol: yeast display scFab, FACS + sequencing
- condition-notes: with MET
The list shows a part of the results. How many sequences the whole screen found active is unknown.
value-type: antigen binding call

>  <change>
VRGRGALS

>  <value-type>
antigen binding call

>  <value>
binds

$$$$
>  <change>
FKGGSSAA

>  <value-type>
antigen binding call

>  <value>
no binding

$$$$
>  <change>
FKAGGSGA

>  <value-type>
antigen binding call

>  <value>
no binding

$$$$
>  <change>
YAGGDDSA

>  <value-type>
antigen binding call

>  <value>
no binding

$$$$
>  <change>
YRGKGVGV

>  <value-type>
antigen binding call

>  <value>
no binding

$$$$
>  <change>
VKARGAGS

>  <value-type>
antigen binding call

>  <value>
binds

$$$$
>  <change>
AAGGNAWS chain 1 G66S

>  <value-type>
antigen binding call

>  <value>
no binding

$$$$
>  <change>
YKGEGFSS

>  <value-type>
antigen binding call

>  <value>
no binding

$$$$
>  <change>
SKERGDWV

>  <value-type>
antigen binding call

>  <value>
no binding

$$$$
>  <change>
FEATAAGS

>  <value-type>
antigen binding call

>  <value>
no binding

$$$$
>  <change>
FAKAGFVA

>  <value-type>
antigen binding call

>  <value>
no binding

$$$$
>  <change>
SRTRGFGS

>  <value-type>
antigen binding call

>  <value>
no binding

$$$$
>  <change>
FAARDSGA

>  <value-type>
antigen binding call

>  <value>
no binding

$$$$
>  <change>
YRTGDSGD

>  <value-type>
antigen binding call

>  <value>
binds

$$$$
>  <change>
VRTEDAWA

>  <value-type>
antigen binding call

>  <value>
binds

$$$$
>  <change>
VAATADAV

>  <value-type>
antigen binding call

>  <value>
no binding

$$$$
>  <change>
SARKGDVA

>  <value-type>
antigen binding call

>  <value>
no binding

$$$$
>  <change>
YAGRGDVS

>  <value-type>
antigen binding call

>  <value>
no binding

$$$$
>  <change>
YRKEGAAA

>  <value-type>
antigen binding call

>  <value>
binds

$$$$
>  <change>
DAKEGAAA

>  <value-type>
antigen binding call

>  <value>
no binding

$$$$

// provenance: the emibetuzumab library of Makowski et al. (2022)
